Item-by-item account of pIC50
Target: UniProt Q16880
Sequence (Q16880 21-541): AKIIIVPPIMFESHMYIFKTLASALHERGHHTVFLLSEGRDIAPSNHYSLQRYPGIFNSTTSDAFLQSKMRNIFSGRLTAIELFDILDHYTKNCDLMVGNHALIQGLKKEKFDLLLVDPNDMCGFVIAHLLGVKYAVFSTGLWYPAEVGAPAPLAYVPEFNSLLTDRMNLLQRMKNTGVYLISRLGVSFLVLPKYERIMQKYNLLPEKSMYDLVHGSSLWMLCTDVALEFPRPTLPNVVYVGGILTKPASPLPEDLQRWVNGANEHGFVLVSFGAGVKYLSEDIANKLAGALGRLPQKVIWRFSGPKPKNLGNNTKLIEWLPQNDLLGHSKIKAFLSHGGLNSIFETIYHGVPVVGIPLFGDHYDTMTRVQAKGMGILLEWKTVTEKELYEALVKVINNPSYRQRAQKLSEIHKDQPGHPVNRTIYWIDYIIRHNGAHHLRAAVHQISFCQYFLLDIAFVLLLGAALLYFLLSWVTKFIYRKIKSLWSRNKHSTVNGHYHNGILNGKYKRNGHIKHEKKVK
Test: CGT Enzyme Assay (Biological Example 2, RapidFire/MS/MS method with 0.01% Tween 80 added)
Type: biochemical
Conditions: enzymatic assay, CHO/CGT lysate
pIC50: −log10 of the molar value.

[
  {
    "Molecule": "Cc1ccc(N2C(=O)N(c3ccc(C#N)cc3)C3(COC3)[C@H]2c2cccc(C#N)c2)cc1 [Example 57-1]",
    "pIC50": "4.52 to 5.00"
  },
  {
    "Molecule": "N#Cc1ccc(N2C(=O)N(c3ccc(C#N)cc3)C3(COC3)[C@H]2c2cccc(OC(F)(F)F)c2)cc1 [Example 36-1]",
    "pIC50": "4.52 to 5.00"
  },
  {
    "Molecule": "Cc1ccc(N2C(=O)N(c3ccc(C)cc3)C3(CCCC3)[C@@H]2c2cccc(OC(F)(F)F)c2)cc1 [Example 35-2]",
    "pIC50": "> 6.00"
  },
  {
    "Molecule": "O=C1N(c2ccc(Cl)cc2)[C@H](c2cccc(OC(F)(F)F)c2)C2(CCCC2)N1c1ccc(Cl)cc1 [Example 15-2]",
    "pIC50": "> 6.00"
  },
  {
    "Molecule": "CC1(C)[C@@H](c2cccc(C(F)(F)F)c2)N(c2ccc(Cl)cc2)C(=O)N1c1ccc(Cl)cc1 [Example 6-1]",
    "pIC50": "4.52 to 5.00"
  },
  {
    "Molecule": "CC[C@@]1(C)[C@@H](c2cccc(C#N)c2)N(c2ccc(Cl)cc2)C(=O)N1c1ccc(Cl)cc1 [Example 34-3]",
    "pIC50": "> 6.00"
  },
  {
    "Molecule": "CC[C@]1(C)[C@@H](c2cccc(OC(F)(F)F)c2)N(c2ccc(C#N)cc2)C(=O)N1c1ccc(C#N)cc1 [Example 51-3]",
    "pIC50": "5.00 to 6.00"
  }
]
